experiment: clinical
condition-summary: human, serum, po, 100 mg twice daily

{"columns": ["molecule", "concentration at 24 weeks"],
 "data": [
  ["CS(=O)(=O)Nc1ccc([N+](=O)[O-])cc1Oc1ccccc1 [nimesulide, 4-nitro-2-phenoxymethanesulfonanilide]", "~10 µM"]
]}

###

experiment: in vivo
condition-summary: B6SJ1, mouse, brain relative to serum, oral, 1500 mg/kg of diet, level of nimesulide in the brain relative to serum levels, mice, nimesulide 1500 mg/kg of diet for three months, brain parenchyma
reported-metric: Kp at 3 months

{"columns": ["molecule", "reported-metric", "endpoint-result"],
 "data": [
  ["CS(=O)(=O)Nc1ccc([N+](=O)[O-])cc1Oc1ccccc1 [nimesulide, 4-nitro-2-phenoxymethanesulfonanilide]", "Kp at 3 months", "~0.1"]
]}
